Form field: IC50 (one value per entry).
- target-under-test: ZIKV NS5 (Zika virus, UniProt Q32ZE1)
- Sequence (Q32ZE1 2517-3419): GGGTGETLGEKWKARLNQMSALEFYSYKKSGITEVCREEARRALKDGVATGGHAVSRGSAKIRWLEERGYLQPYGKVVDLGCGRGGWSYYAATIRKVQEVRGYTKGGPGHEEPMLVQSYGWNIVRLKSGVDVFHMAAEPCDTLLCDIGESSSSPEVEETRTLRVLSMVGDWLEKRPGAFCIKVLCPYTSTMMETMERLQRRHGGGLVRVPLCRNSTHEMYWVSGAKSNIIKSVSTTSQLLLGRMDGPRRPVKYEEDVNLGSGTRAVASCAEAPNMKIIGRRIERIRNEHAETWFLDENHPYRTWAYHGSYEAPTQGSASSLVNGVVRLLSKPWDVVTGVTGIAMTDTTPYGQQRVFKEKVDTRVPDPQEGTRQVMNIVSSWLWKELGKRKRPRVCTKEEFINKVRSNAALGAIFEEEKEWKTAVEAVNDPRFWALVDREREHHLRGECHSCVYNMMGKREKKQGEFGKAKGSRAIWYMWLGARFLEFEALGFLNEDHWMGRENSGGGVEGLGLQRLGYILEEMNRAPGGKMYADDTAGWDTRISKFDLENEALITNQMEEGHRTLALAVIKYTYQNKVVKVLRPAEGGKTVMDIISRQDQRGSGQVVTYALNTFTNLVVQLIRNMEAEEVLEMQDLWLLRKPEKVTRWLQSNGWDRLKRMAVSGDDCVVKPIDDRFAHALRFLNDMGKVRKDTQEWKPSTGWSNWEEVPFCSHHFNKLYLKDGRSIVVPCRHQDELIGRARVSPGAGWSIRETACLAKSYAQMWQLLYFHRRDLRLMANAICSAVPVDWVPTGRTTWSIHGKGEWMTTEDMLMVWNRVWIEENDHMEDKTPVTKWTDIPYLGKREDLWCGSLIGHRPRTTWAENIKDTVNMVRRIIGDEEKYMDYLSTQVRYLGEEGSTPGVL
- assay-procedure: SYTO […] fluorescence RdRp assay, A2-primed, poly(U) template
- Format: biochemical
- test-settings: read-out: IC50 ^a (μM, mean ± std. dev.)
Give the value, in units of µM, as a plain number.

The compound Nc1ncnc2c1ncn2[C@@H]1O[C@H](COP(=O)(O)OP(=O)(O)OP(=O)(O)O)C[C@H]1O [3′-dATP, reference compound] showed IC50 equal to 0.06

The compound Nc1ncnc2c([C@@H]3N[C@H](COP(=O)(O)OP(=O)(O)OP(=O)(O)O)[C@@H](O)[C@H]3O)c[nH]c12 showed IC50 equal to 47
